What TGI was measured for each of the following?
System: KM20L2 colon
Test: NCI tumour cell line growth inhibition, 48 h

The recorded TGI for CCCCCCCCCCCCCCC1OC(=O)c2ccccc21 (stereo unspecified) is > 100 µM

The recorded TGI for C/C(=N\NC(N)=S)c1ccc(C)cc1C is > 100 µM

The recorded TGI for Cc1cc2cccc(Cl)c2nc1C(=O)c1ccccc1 is > 100 µM

The recorded TGI for C=C1CC(OC)(C(O)C(=O)N[C@H]2OCO[C@H]3C2O[C@H](C[C@@H](COC)OC)C(C)(C)C3OC)O[C@H](C)[C@@H]1C (stereo partly specified) is < 0.00482 µM

The recorded TGI for CC1=C[C@@H]2Cc3occc3C(C)(C)[C@@H]2CC1 is 33.8 µM

The recorded TGI for CC(=O)OCCc1cccnc1/C=N/O is > 100 µM

====

Tested on: HCT-15 colon
Assay: NCI tumour cell line growth inhibition, 48 h
What TGI was measured for each of the following?

The recorded TGI for O=[n+]1c(CBr)c(CBr)n([O-])c2ccccc21 is 3.48 µM

The recorded TGI for O=C(O)CNC(=O)c1ccc([As](=O)(O)O)cc1 is > 100 µM

The recorded TGI for Cc1nc2ccc([N+](=O)[O-])cc2c(=O)n1C(=S)Nc1cccc(Cl)c1 is 31 µM

The recorded TGI for CC(C)CCNC(=O)c1ccc(CNC(=O)/C=C/c2ccc(OCc3ccccc3)cc2)cc1 is > 100 µM

The recorded TGI for Cc1cc2cccc(Cl)c2nc1C(=O)c1ccccc1 is > 100 µM

The recorded TGI for CC(C)(CO)N1C(=O)c2ccccc2C1(O)c1ccc(Cl)cc1 (stereo not drawn) is > 100 µM

The recorded TGI for N#Cc1nc(-c2ccc(F)cc2)oc1S(=O)(=O)N1CCOCC1 is 5.37 µM

The recorded TGI for COc1nc2c(cc1S(=O)(=O)c1ccccc1)CCc1c-2cnn1-c1ccccc1Cl is > 100 µM

The recorded TGI for OCCNCO is > 100 µM

The recorded TGI for COc1cc([C@@H]2c3cc4c(cc3C[C@H]3COC(=O)[C@@H]32)OCO4)cc(OC)c1OC is > 2.32 µM

The recorded TGI for C(=Nc1ccc(-c2nc3ccccc3s2)cc1)c1ccco1 is > 100 µM

The recorded TGI for O=C1Oc2cc3c(c4cccc1c24)OCN(c1ccc(Cl)cc1)C3 is > 64.7 µM

The recorded TGI for O=C1/C(=C/c2ccc(F)cc2)CNC/C1=C\c1ccc(F)cc1 is 1.97 µM

The recorded TGI for C=C1CC(OC)(C(O)C(=O)N[C@H]2OCO[C@H]3C2O[C@H](C[C@@H](COC)OC)C(C)(C)C3OC)O[C@H](C)[C@@H]1C (stereo partly drawn) is < 0.00482 µM

The recorded TGI for COC(=O)c1c(OC)cccc1C(=O)O is > 100 µM

The recorded TGI for COc1cc2c(cc1OC)C(=O)/C(=C/c1cc(C)c(O)c(C)c1)C2 is > 100 µM

The recorded TGI for CC1(C)N=C(N)N=C(N)N1c1ccc(CCCCc2ccc(S(=O)(=O)F)cc2Cl)c(Cl)c1 is 193 µM

The recorded TGI for N#Cc1cnn2ccn(C3OC(COC(=O)c4ccccc4)C(OC(=O)c4ccccc4)C3OC(=O)c3ccccc3)c12 (stereo not drawn) is > 21.5 µM

The recorded TGI for O=C1NC(=S)NC(=O)C1C(c1ccccc1[N+](=O)[O-])C1C(=O)NC(=S)NC1=O is > 100 µM

The recorded TGI for COc1ccc(N=Cc2cc(OC)c(OC)c(OC)c2)cc1 is > 100 µM

The recorded TGI for O=C(O)c1cc(S(=O)(=O)N=NC=C2c3ccccc3N(O)c3ccccc32)ccc1O is 21.2 µM

The recorded TGI for CCOC(=O)C1C(=O)CC(O)(c2ccccc2)C(C(=O)OCC)C1c1ccc(OC)cc1 (stereo not drawn) is > 100 µM

The recorded TGI for COc1cc([C@@H]2c3cc4c(cc3[C@@H](NC(=O)c3cccc([N+](=O)[O-])c3)C3COC(=O)[C@@H]32)OCO4)cc(OC)c1O (stereo partly drawn) is 4.31 µM

The recorded TGI for Clc1ccc(Cc2nc3cc4ccccc4cc3[nH]2)cc1 is 26.4 µM

The recorded TGI for CNC(=O)c1cc(Oc2ccc3c(c2)sc2nc(-c4ccc(N)cc4)cn23)ccn1 is > 100 µM

The recorded TGI for CCOC(=O)C1CC(O)C(=O)N1C (stereo not drawn) is > 100 µM

The recorded TGI for CN=C1NC(=O)/C(=C/c2ccc3ncccc3c2)S1 is > 25 µM

The recorded TGI for CCOC(=O)c1cc(-c2ccc([N+](=O)[O-])cc2)n(-c2ccc(C(=O)O)c(O)c2)c1C is 12.2 µM

The recorded TGI for Cn1c(-c2nonc2N)nc2cnccc21 is > 25 µM

The recorded TGI for CC1CCC[P+](Cc2ccccc2)(c2ccccc2)CC1 (stereo not drawn) is > 100 µM

The recorded TGI for O=C1/C(=C/c2ccc(Br)s2)NC(=S)N1CN1CCOCC1 is > 100 µM

The recorded TGI for ClCc1ccccc1CSc1ncnc2nc[nH]c12 is > 60 µM

The recorded TGI for CCOC(=O)c1c(SCCN2CCCC2)n(-c2ccccc2)c(=S)n(-c2ccccc2)c1=O is 5.54 µM

The recorded TGI for O=C(Nc1ccccc1[N+](=O)[O-])c1ccccc1 is > 100 µM

The recorded TGI for C[Si](C)(C)c1ccc(CC2(Cc3ccc([Si](C)(C)C)cc3)CCNC2)cc1 is 4.86 µM

The recorded TGI for N#Cc1c(OCCF)c2ccccc2n2c1nc1ccccc12 is > 100 µM

The recorded TGI for CCCCn1/c(=N/C(=S)N(C)C)ss/c1=N\C(=S)N(C)C is > 100 µM

The recorded TGI for Cc1oc2nc(N(C)C)n3nnnc3c2c1C is > 100 µM

The recorded TGI for CC[n+]1ccc2c(c1)C(=O)c1nccc3c1c-2nc1ccccc13 is > 33.3 µM

The recorded TGI for O=C1CC(c2ccc([N+](=O)[O-])cc2)C2(C(=O)NC(=S)NC2=O)C(c2ccc([N+](=O)[O-])cc2)C1 (stereo not drawn) is 58 µM

The recorded TGI for COc1ccc2c(c1)C(=O)c1ccccc1C2 is > 100 µM

The recorded TGI for O=C1/C(=C/c2ccccc2)CN(C(=O)Oc2ccc(Cl)cc2)C/C1=C\c1ccccc1 is 2.73 µM

The recorded TGI for OCc1c(-c2cccc3ccccc23)sc(-c2cccc3ccccc23)c1CO is 27.9 µM

====

System: UACC-257 melanoma
Assay: NCI tumour cell line growth inhibition, 48 h
readout: GI50

The recorded GI50 for S=C1NCCN1C1=Nc2ccccc2CO1 is > 100 µM

The recorded GI50 for CC1=C2[C@@H](CC1)[C@]1(C)O[C@@](C(C)C)(C[C@H]1OC(=O)[C@H](C)O)[C@H]2OC(=O)/C=C/c1ccccc1 is 17 µM

The recorded GI50 for OC(c1cccc(C(F)(F)F)c1)c1cnccc1NC1CCCCCC1 (stereo not drawn) is 2.36 µM

The recorded GI50 for NNC(=O)c1cnn(-c2ccnc3c(C(F)(F)F)cccc23)c1N is > 100 µM

The recorded GI50 for N#Cc1nc(-c2ccc(F)cc2)oc1S(=O)(=O)N1CCOCC1 is 7 µM

The recorded GI50 for COc1cc2c(c(OC)c1OC)-c1ccc(NCc3ccccc3)c(=O)cc1[C@@H](NC(C)=O)CC2 is 0.671 µM

The recorded GI50 for O=C(/C=C(\[O-])c1ccccc1)CCCCCCC(=O)/C=C(\[O-])c1ccccc1.O=C(/C=C(\[O-])c1ccccc1)CCCCCCC(=O)/C=C(\[O-])c1ccccc1.O=C(/C=C(\[O-])c1ccccc1)CCCCCCC(=O)/C=C(\[O-])c1ccccc1.[La+3].[La+3] is > 50 µM

The recorded GI50 for COc1cccc(-c2nn(-c3ccccc3)cc2-c2ccnc(NCCCNS(=O)(=O)c3cccc(F)c3)c2)c1 is 5.12 µM

====

What log10(TGI) was measured for each of the following?
System: OVCAR-3 ovarian
Assay: NCI tumour cell line growth inhibition, 48 h
// do not treat as linear: log10 of TGI, unit µM

The recorded log10(TGI) for Clc1cccc(NC=Nc2ccc(-c3nc4ccccc4s3)cc2)c1 is 1.36

The recorded log10(TGI) for O=C(N/N=C/c1cccc(O)c1O)N/N=C/c1cccc(O)c1O is 0.94

The recorded log10(TGI) for CC1=C(CCCOC(=O)NCCCl)C2=C(C)C3(CC3)[C@@](C)(O)C(=O)C2=C1 is 1.00

The recorded log10(TGI) for Cc1nc(Cl)c(CBr)c(Cl)n1 is 0.29

The recorded log10(TGI) for COC(=O)c1c2c(c(C)[n+]([O-])c1C)C(=O)C=CC2=O is 0.02

The recorded log10(TGI) for CCOC(=O)c1c(SCCN2CCCC2)n(-c2ccccc2)c(=S)n(-c2ccccc2)c1=O is 0.53

The recorded log10(TGI) for O=C1/C(=C/c2ccc([N+](=O)[O-])cc2)CNC/C1=C\c1ccc([N+](=O)[O-])cc1 is 0.98
